# assay-target: hpol η (Homo sapiens, UniProt Q9Y253)
# Construct: hpol η (residues 1-437); made in house
# Sequence (Q9Y253 1-437): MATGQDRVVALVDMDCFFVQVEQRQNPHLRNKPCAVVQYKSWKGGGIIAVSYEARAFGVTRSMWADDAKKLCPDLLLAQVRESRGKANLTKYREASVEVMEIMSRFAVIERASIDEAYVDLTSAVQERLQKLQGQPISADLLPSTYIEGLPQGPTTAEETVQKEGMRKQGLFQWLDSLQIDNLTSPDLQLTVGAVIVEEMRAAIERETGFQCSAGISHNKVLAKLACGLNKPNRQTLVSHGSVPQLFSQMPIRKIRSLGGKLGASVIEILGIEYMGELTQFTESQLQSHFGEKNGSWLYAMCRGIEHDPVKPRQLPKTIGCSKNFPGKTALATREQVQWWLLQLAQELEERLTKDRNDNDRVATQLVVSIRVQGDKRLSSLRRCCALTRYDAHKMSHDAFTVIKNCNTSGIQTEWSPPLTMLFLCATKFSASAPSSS
# assay-info: Fluorescence-based DNA polymerase activity assay
# Assay type: biochemical
# test-conditions: 50 nM DNA; 95% confidence interval in parentheses; read-out: IC50 for inhibition of hpol η
endpoint: IC50 (µM)
Give bare numbers, in µM.

Task: Look up IC50 for this molecule: Cl.[H]/N=C(\N)NN=Cc1cn(C(=O)c2cccc3ccccc23)c2ccc(Cl)cc12 [IAG-10, hydrochloride]
Result: 14.3

Where do these numbers come from? They come from patent US12685733B2.
